# Test system: Plasmodium falciparum
# TEST: GSK_TCMDC: Inhibition of Plasmodium falciparum Dd2 in whole red blood cells, using parasite LDH activity as an index of growth. Test compounds present at 2uM
# Type: functional
Please mark True if the recorded Inhibition is equal to or greater than 50%, and False if it falls below.

*Q* Textbook exercise: given the entry CCCCNc1ccc(C(=O)NC2CCN(C[C@H](O)c3ccnc4ccc(OC)cc34)CC2)cc1 , state whether its Inhibition is greater than or equal to 50%.
*A* True

*Q* Cool, now Br.Oc1ccc(CCNCCCCCCNCCc2ccc(Cl)c(Cl)c2)cc1O
*A* False

*Q* Cool, now O=c1cc(NCCCNCc2[nH]c3cc(Cl)ccc3c2Cl)[nH]c2ccccc12
*A* False

*Q* Cool, now O=C(NCc1cccc(F)c1)Nc1cccc(-c2cccc(-c3nc4cc(C(F)(F)F)ccc4[nH]3)c2)c1
*A* False

*Q* Cool, now COc1cc(C)nc2ccc(NC(=O)Nc3cccc4ccccc34)cc12
*A* False

*Q* Cool, now COc1ccccc1CNC(=O)c1cc(C2CC2)nc2c1cnn2C(C)C
*A* True

*Q* Cool, now Cc1cc(OCCCNc2nc(NCCc3ccc(O)cc3)nc(N3CCNCC3)n2)c(Cl)c(C)c1Cl.O=C(O)C(F)(F)F
*A* False

*Q* Cool, now Cc1ccc(NC(=O)NC2CCN(CCCCCNC(=O)/C=C/c3ccc(Cl)c(Cl)c3)CC2)cc1
*A* False

*Q* Cool, now Cl.Clc1ccc(OCc2ccccc2)c(Cc2ccc(-c3nc4cnccc4[nH]3)o2)c1
*A* False

*Q* Cool, now CCCCOC(=O)[C@H](CCC)NC(=O)c1ccc(NS(=O)(=O)c2ccc3nc(N)[nH]c(=O)c3c2)cc1
*A* False

*Q* Cool, now CC(C)NCc1ccc(-c2cccc(-c3nc4cc(F)ccc4[nH]3)c2)cc1.O=C(O)C(F)(F)F
*A* True

*Q* Cool, now CCn1cc(C=C2Oc3c(ccc(O)c3CN3CCCCC3C)C2=O)c2ccccc21 (stereo not given)
*A* True

*Q* Cool, now CCC[C@@H]([C@@H](CC1CCCCC1)C(=O)N[C@H](C(=O)Nc1nccs1)C(C)(C)SCCOCCOCC)N(O)C=O
*A* True

*Q* Cool, now Cc1nc2ccccc2c(=O)n1/N=C/c1ccccc1[N+](=O)[O-]
*A* False

*Q* Cool, now CCc1ccc(CN2CCC(NC(=O)c3ccc(-c4ccc(N(C)C)cc4)s3)CC2)cc1.O=C(O)C(F)(F)F
*A* False

*Q* Cool, now COc1ccc2nc(C)cc(N/N=C/C=C/c3ccccc3)c2c1
*A* True

*Q* Cool, now COc1ccc2c(=NN=Cc3ccncc3)cc(C)[nH]c2c1
*A* True

*Q* Cool, now COc1ccc(NC(=O)Nc2ccc(-c3ccc(-c4nc5cccc(C)c5[nH]4)s3)cc2)cc1
*A* True

*Q* Cool, now COc1cc(-c2nc(-c3ccccc3)c(-c3ccccc3)[nH]2)cc(OC)c1O
*A* True

*Q* Cool, now COc1ccc2c(NN=Cc3ccccc3Cl)ccnc2c1
*A* False

---

# System: HepG2
# TEST: GSK_TCMDC: Percent inhibition of human HepG2 cell line. Test compounds present at 10uM.
# Type: functional
Please mark y if the recorded Inhibition is equal to or greater than 20%, and n if it falls below.

*Q* Textbook exercise: given the entry CC(=O)c1ccc2cc(C(=O)NC3CCC(CCN4CCc5ccc(-c6noc(C)n6)cc5CC4)CC3)[nH]c2c1.Cl (configuration not stated) , state whether its Inhibition is greater than or equal to 20%.
*A* y

*Q* Cool, now N=C(N)Nc1nc(CCCCCCCCc2csc(NC(=N)N)n2)cs1
*A* y

*Q* Cool, now COc1cc(Nc2nccc(-c3c(-c4cccc(NC(=O)c5c(F)cccc5F)c4)nn4ccccc34)n2)cc(OC)c1OC
*A* y

*Q* Cool, now CCn1c(C)c(C)c2cc(C(=O)Nc3ccon3)ccc21
*A* n

*Q* Cool, now CN1CCN(c2ccc(Nc3ncc([N+](=O)[O-])c(Nc4ccccc4O)n3)cc2)CC1.O=C(O)C(F)(F)F
*A* y

*Q* Cool, now COc1ccc(CN(C)Cc2cc(C(C)C)c(C)cc2O)cc1F
*A* n

*Q* Cool, now O=C1CCCC1Sc1nc2ccccc2c(=O)n1-c1ccc(Cl)c(Cl)c1 (configuration not stated)
*A* n

*Q* Cool, now COc1cc2nc(N3CCN(C(=O)c4ccc(N(C(=O)OC(C)(C)C)C(=O)OC(C)(C)C)cc4)CC3)nc(N)c2cc1OC
*A* n

*Q* Cool, now CC(C)(C)c1ccc(CN2CCC(CNC(=O)c3cc(-c4cccc(Cl)c4)cs3)C2)cc1.O=C(O)C(F)(F)F (configuration not stated)
*A* y

*Q* Cool, now Fc1ccc2[nH]c(-c3cccc(-c4cccc(CN5CCN(c6ccncc6)CC5)c4)c3)nc2c1.O=C(O)C(F)(F)F
*A* y

*Q* Cool, now Cc1ccc(NC(=O)c2cc(Br)cc(N3CCC(N(C)C)CC3)c2)cc1F.O=C(O)C(F)(F)F
*A* y

*Q* Cool, now CCOc1cc(C(=O)N[C@@H](Cc2ccccc2)[C@H](O)CNC(C)(C)c2cccc(OC)c2)cc(N2CCCS2(=O)=O)c1
*A* n

*Q* Cool, now Cc1cccc2nc(-c3ccc(-c4ccc(CN5CCCCC5CO)cc4)cc3)[nH]c12.O=C(O)C(F)(F)F (configuration not stated)
*A* y

*Q* Cool, now Cc1nn(-c2ccnc3cc(Cl)ccc23)c(C)c1C(=O)NCc1cc(Cl)cc(Cl)c1
*A* n

*Q* Cool, now COc1ccc2nccc([C@@H](O)CN3CCC(NC(=O)c4ccc(Cl)c(OC)c4)CC3)c2c1
*A* y

*Q* Cool, now S=c1nc(-c2ccccc2)n2ccsc2n1
*A* n

*Q* Cool, now CCc1c(CCNCCCCCCNC(C)(C)Cc2ccc3c(c2CC)OCO3)ccc(OC)c1OC.Cl
*A* y

*Q* Cool, now CC(C)N(CC(=O)c1ccc(O)c(C(=O)O)c1)Cc1ccccc1.Cl
*A* n

*Q* Cool, now CNc1ccc(CNCc2ccc(-c3ccc(-c4nc5cc(F)ccc5[nH]4)cc3)cc2)cc1.O=C(O)C(F)(F)F
*A* y

*Q* Cool, now Cc1ccc2c(Cc3cnc(N)nc3N)cc(C)c(N)c2n1.Cl
*A* n

*Q* Cool, now Br.c1cc(C2=NC3CCCCC3N2)ccc1OCCCOc1ccc(C2=NC3CCCCC3N2)cc1 (configuration not stated)
*A* n

*Q* Cool, now Cc1ccc(NC(=N)Nc2ncccc2OCc2c(F)cccc2Cl)cc1
*A* y

*Q* Cool, now Cc1ccc(CN2CCCN(Cc3cccc(NC(=O)c4cc5ccccc5s4)c3)CC2)cc1C.O=C(O)C(F)(F)F
*A* y

*Q* Cool, now Cc1ccc(NC(=O)c2ccc(CN3CCCN(CC4CCCCC4)CC3)cc2)cc1.O=C(O)C(F)(F)F
*A* y

*Q* Cool, now O=C(Nc1ccc(Cl)cc1)N[C@H]1CCN(Cc2ccc(OCCCN3CCCCC3)cc2)C1
*A* y

*Q* Cool, now Cl.NC1=NC2(CCCCC2)N(Cc2ccc(Cl)c(Cl)c2)C(N)=N1
*A* y

*Q* Cool, now CC(Cc1ccc(COc2ccc(CC(CO)NCCc3cccc(Cl)c3)cc2)cc1)NCCc1cccc(Cl)c1.Cl (configuration not stated)
*A* y

*Q* Cool, now COc1ccc(NC(=O)/C=C/c2ccccc2Cl)cc1OCCN1CCC(O)(c2ccc(Cl)c(C(F)(F)F)c2)CC1.Cl
*A* y

*Q* Cool, now CCCNCc1ccc(-c2ccc(CN(CCOC)C(=O)/C=C/c3ccccc3C)cc2)nc1.O=C(O)C(F)(F)F
*A* n

*Q* Cool, now O=C(NCC1CN(Cc2ccc(N3CCCC3)o2)CCCO1)c1ccc2c(c1)OCO2.O=CO (configuration not stated)
*A* n

*Q* Cool, now COc1ccc(-c2cccc(NC(=O)c3ccc(Cl)cc3)c2)cc1CN1CCNCC1.O=C(O)C(F)(F)F
*A* y

*Q* Cool, now c1ccc(Oc2ccc(Nc3ccnc(Nc4ccc(CN5CCOCC5)cc4)n3)cc2)cc1
*A* y

*Q* Cool, now O=C(O)c1cccc2c(-c3ccncc3)cccc12
*A* y

*Q* Cool, now COc1cc(/C=C/C(=O)NCC(CCNc2cc(=O)c3ccccc3[nH]2)NCc2cc(Br)cc(Br)c2)cc(OC)c1 (configuration not stated)
*A* n

*Q* Cool, now COCc1ccc(CN2CCC(C(=O)Nc3ccc(-c4nc5ccccc5[nH]4)cc3)CC2)o1
*A* n

*Q* Cool, now Cc1cc(OCCCN2CCC(NS(=O)(=O)c3ccc(C(F)(F)F)cc3)CC2)c2ccccc2n1
*A* n

*Q* Cool, now CC[C@H]1CN(Cc2ccccc2Br)CC[C@H]1CCCc1ccnc2ccc(O)cc12
*A* n

Ref: ChEMBL document CHEMBL1157539
